biological target: T1, activated Protein C (APC) (human, UniProt P04070 43-197; P04070 212-461); assay: ratio of rate constants, APC over thrombin
T1 construct: also called human plasma APC
T1 sequence (P04070 43-197, chain 1 of 2): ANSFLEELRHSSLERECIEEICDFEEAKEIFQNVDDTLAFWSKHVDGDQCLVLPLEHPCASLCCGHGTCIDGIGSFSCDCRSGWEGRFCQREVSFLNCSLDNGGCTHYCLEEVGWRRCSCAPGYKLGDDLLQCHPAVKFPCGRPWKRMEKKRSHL
T1 sequence (P04070 212-461, chain 2 of 2): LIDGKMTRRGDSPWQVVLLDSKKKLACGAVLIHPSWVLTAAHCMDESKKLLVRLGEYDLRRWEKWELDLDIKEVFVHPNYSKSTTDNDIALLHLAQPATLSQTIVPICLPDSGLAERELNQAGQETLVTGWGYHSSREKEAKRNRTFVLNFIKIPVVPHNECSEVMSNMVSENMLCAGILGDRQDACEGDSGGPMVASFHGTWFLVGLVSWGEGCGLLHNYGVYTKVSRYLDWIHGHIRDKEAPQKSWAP
quantity.name: inhibition of APC/thrombin (fold)

{"binder": "A22 2.B10 PCI (P4SP2LP1′K) (other, As A22 WT PCI) APSSRRDFTFDLYRALASAAPSQNIFFSPVSISMSLAMLSLGAGSSTKMQILEGLGLNLQKSSEKELHRGFQQLLQELNQPRDGFQLSLGNALFTDLVVDLQDTFVSAMKTLYLADTFPTNFRDSAGAMKQINDYVAKQTKGKIVDLLKNLDSNAVVIMVNYIFFKAKWETSFNHKGTQEQDFYVTSETVVRVPMMSREDQYHYLLDRNLSCRVVGVPYQGNATALFILPSEGKMQQVENGLSEKTLRKWLKMFKKRQLELYLPKFSIEGSYQLEKVLPSLGISNVFTSHADLSGISNHSNIQVSEMVHKAVVEVDESGTRAAAATGTISTLRKARLNSQRLVFNRPFLMFIVDNNILFLGKVNRP", "quantity.name": "inhibition of APC/thrombin", "measured.result": 26.9}
{"binder": "A22 5.E12 PCI (P4HP2RP1′V) (other, As A22 WT PCI) APSSRRDFTFDLYRALASAAPSQNIFFSPVSISMSLAMLSLGAGSSTKMQILEGLGLNLQKSSEKELHRGFQQLLQELNQPRDGFQLSLGNALFTDLVVDLQDTFVSAMKTLYLADTFPTNFRDSAGAMKQINDYVAKQTKGKIVDLLKNLDSNAVVIMVNYIFFKAKWETSFNHKGTQEQDFYVTSETVVRVPMMSREDQYHYLLDRNLSCRVVGVPYQGNATALFILPSEGKMQQVENGLSEKTLRKWLKMFKKRQLELYLPKFSIEGSYQLEKVLPSLGISNVFTSHADLSGISNHSNIQVSEMVHKAVVEVDESGTRAAAATGTIHTRRVARLNSQRLVFNRPFLMFIVDNNILFLGKVNRP", "quantity.name": "inhibition of APC/thrombin", "measured.result": 11.3}
{"binder": "A22 D8 PCI (P4QP2RP1′N) (other, As A22 WT PCI) APSSRRDFTFDLYRALASAAPSQNIFFSPVSISMSLAMLSLGAGSSTKMQILEGLGLNLQKSSEKELHRGFQQLLQELNQPRDGFQLSLGNALFTDLVVDLQDTFVSAMKTLYLADTFPTNFRDSAGAMKQINDYVAKQTKGKIVDLLKNLDSNAVVIMVNYIFFKAKWETSFNHKGTQEQDFYVTSETVVRVPMMSREDQYHYLLDRNLSCRVVGVPYQGNATALFILPSEGKMQQVENGLSEKTLRKWLKMFKKRQLELYLPKFSIEGSYQLEKVLPSLGISNVFTSHADLSGISNHSNIQVSEMVHKAVVEVDESGTRAAAATGTIQTRRNARLNSQRLVFNRPFLMFIVDNNILFLGKVNRP", "quantity.name": "inhibition of APC/thrombin", "measured.result": 11.9}
